Target: LbDHODH (Leishmania braziliensis, UniProt E9AI53)
Sequence (E9AI53 entry or part of it): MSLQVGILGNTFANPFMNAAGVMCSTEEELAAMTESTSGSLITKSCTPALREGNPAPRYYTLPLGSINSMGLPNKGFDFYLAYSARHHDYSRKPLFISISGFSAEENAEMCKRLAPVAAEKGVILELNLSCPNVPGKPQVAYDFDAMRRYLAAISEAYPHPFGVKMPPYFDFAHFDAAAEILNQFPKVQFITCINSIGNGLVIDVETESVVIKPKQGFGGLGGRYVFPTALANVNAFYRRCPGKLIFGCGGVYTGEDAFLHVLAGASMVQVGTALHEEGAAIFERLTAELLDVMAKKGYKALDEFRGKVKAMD
Assay: biochemical
Conditions: 4 h, pH 8.15, read-out: LbDHODH Activity±SD (%)
PROPERTY LABEL: activity at 50 µM (%)
Please reply with the bare figure in % and do not write the unit itself.

O=C1NC(=O)C(=Cc2cccc(O)c2)C(=O)N1	23
O=C1NC(=O)C(=Cc2ccccc2)C(=O)N1	29
O=C1NC(=O)C(=C/C=C/c2ccccc2)C(=O)N1	16

Data point: `O=C1NC(=O)C(=Cc2ccc(O)c([N+](=O)[O-])c2)C(=O)N1` ; activity at 50 µM = 39

Data point: `COc1cc(C=C2C(=O)NC(=O)NC2=O)ccc1O` ; activity at 50 µM = 62

Data point: `O=C1NC(=O)C(=Cc2ccc(C(=O)O)cc2)C(=O)N1` ; activity at 50 µM = 29

Data point: `O=C1NC(=O)C(=Cc2ccc(-c3ccccc3)cc2)C(=O)N1` ; activity at 50 µM = 10

Data point: `O=C1NC(=O)C(=Cc2ccc(N3CCOCC3)cc2[N+](=O)[O-])C(=O)N1` ; activity at 50 µM = 35

* * *

The entries below are paired with their reported activity at 12.5 µM.
Biological target: LbDHODH (Leishmania braziliensis, UniProt E9AI53)
Assay: biochemical
Conditions: 4 h, pH 8.15, read-out: LbDHODH Activity±SD (%)
Please reply with the bare figure in % and do not write the unit itself.

Check out these entries, answers already filled in.
COc1cc(C=C2C(=O)NC(=O)NC2=O)ccc1O [2c]	83
O=C1NC(=O)C(=Cc2ccccc2)C(=O)N1 [2a]	55

Here's the next entry for you.
Data point: O=C1NC(=O)C(=Cc2cccc(O)c2)C(=O)N1 [2g] ; activity at 12.5 µM = 58

* * *

Experiment: in vitro
Conditions: male, CD1, mouse, microsomes, pH 7.4, Calculated CLint, app (µl/min/mg), Average, mouse liver microsomes, 0.4 mg/ml protein, 1 µM
PROPERTY LABEL: microsomal CLint at 1 μM
Form field: result (number plus unit)

Data point: `COc1cc(C=C2C(=O)NC(=O)NC2=O)ccc1O` ; microsomal CLint at 1 μM = 290 µL/min/mg

* * *

Molecular target: UniProtKB E9AI53
Assay: biochemical
Details: 4 h, pH 8.15, read-out: LbDHODH Activity±SD (%)
PROPERTY LABEL: activity at 12.5 µM (%)
Please reply with the bare figure in % and do not write the unit itself.

Data point: O=C1NC(=O)C(=Cc2ccc(O)c([N+](=O)[O-])c2)C(=O)N1 [2d] ; activity at 12.5 µM = 52

* * *

Test: in vitro
Details: mouse, liver microsomes, pH 7.4, % Remaining, T=30 min, n=1, mouse liver microsomes, 1 µM, 30 min, n=1
The entries below are paired with their reported remaining at 0.5 h, 1 µM.
Please reply with the bare figure in % and do not write the unit itself.

CC(C)NCC(O)COc1cccc2ccccc12 (centres unmarked) [Propranolol]	22.7

Data point: O=C(O)Cc1ccccc1Nc1c(Cl)cccc1Cl [Diclofenac] ; remaining at 0.5 h, 1 µM = 62

* * *

Settings: mouse liver microsomes, 5 min, replicate 1 (left block), raw LC-MS area
PROPERTY LABEL: Raw data: analyte peak area, T=5
Write no unit; give the number alone.

Check out these entries, answers already filled in.
O=C(O)Cc1ccccc1Nc1c(Cl)cccc1Cl	17080
O=C1NC(=O)C(=C/C=C/c2ccccc2)C(=O)N1	1438

Data point: CC(C)NCC(O)COc1cccc2ccccc12 (stereo not shown) ; Raw data: analyte peak area, T=5 = 56345

Data point: `O=C1NC(=O)C(=Cc2ccc(N3CCOCC3)cc2[N+](=O)[O-])C(=O)N1` ; Raw data: analyte peak area, T=5 = 18869

* * *

Assay: in vitro
Details: mouse, liver microsomes, pH 7.4, % Remaining, T=20 min, n=2, mouse liver microsomes, 1 µM, 20 min, n=2
PROPERTY LABEL: remaining at 20 min, 1 µM (%)
Please reply with the bare figure in % and do not write the unit itself.

CC(C)NCC(O)COc1cccc2ccccc12 (centres unmarked) [Propranolol]	31.2

Here's the next entry for you.
Data point: O=C(O)Cc1ccccc1Nc1c(Cl)cccc1Cl [Diclofenac] ; remaining at 20 min, 1 µM = 79

* * *

The entries below are paired with their reported activity at 100 µM.
Target: LbDHODH (Leishmania braziliensis, UniProt E9AI53)
Test: biochemical
Details: read-out: Single dose (4h) % activity
Please reply with the bare figure in % and do not write the unit itself.

Check out these entries, answers already filled in.
O=C1NC(=O)C(CC=Cc2ccccc2)C(=O)N1 [3i]	21
O=C1NC(=O)C(Cc2ccc(-c3ccccc3F)[nH]2)C(=O)N1 [3h]	80
O=C1NC(=O)C(=Cc2ccc(-c3ccccc3F)[nH]2)C(=O)N1 [2h]	60

Here's the next entry for you.
Data point: O=C1NC(=O)C(=Cc2ccc(O)c([N+](=O)[O-])c2)C(=O)N1 [2d] ; activity at 100 µM = 16

* * *

Test: in vitro
Settings: mouse, liver microsomes, pH 7.4, % Remaining, T=30 min, n=2, mouse liver microsomes, 1 µM, 30 min, n=2
PROPERTY LABEL: remaining at 0.5 h, 1 µM (%)
Please reply with the bare figure in % and do not write the unit itself.

Data point: O=C(O)Cc1ccccc1Nc1c(Cl)cccc1Cl [Diclofenac] ; remaining at 0.5 h, 1 µM = 63

* * *

Biological target: LbDHODH (Leishmania braziliensis, UniProt E9AI53)
Assay: biochemical
Conditions: read-out: Single dose (0h) % activity
PROPERTY LABEL: activity at 100 µM (%)
Please reply with the bare figure in % and do not write the unit itself.

Check out these entries, answers already filled in.
O=C1NC(=O)C(CC=Cc2ccccc2)C(=O)N1	103
O=C1NC(=O)C(=Cc2cccc(O)c2)C(=O)N1	22
O=C1NC(=O)C(=Cc2ccc(O)c([N+](=O)[O-])c2)C(=O)N1	5
O=C1NC(=O)C(Cc2ccc(C(=O)O)cc2)C(=O)N1	109
COc1cc(C=C2C(=O)NC(=O)NC2=O)ccc1O	7

Here's the next entry for you.
Data point: `O=C1NC(=O)C(Cc2ccc(-c3ccccc3F)[nH]2)C(=O)N1` ; activity at 100 µM = 80

* * *

Target: LbDHODH (Leishmania braziliensis, UniProt E9AI53)
Assay: biochemical
Details: 0 h, pH 8.15, read-out: LbDHODH Activity±SD (%)
Protocol: To assess the ability of compounds 2a–2i to inhibit LbDHODH via covalent bond formation with Cys^131, we initially screened them at a concentration of 100 μM under two conditions: with and without a 4-h preincubation with the enzyme. The experiments were performed in a 96-well microplate reader (SpectraMax Plus 384, Molecular Devices, USA), containing the […] of the buffer 60 mM DCIP, 50 mM Tris pH 8.15, 150 mM KCl, 0.1% Triton X-100, 50 μM DHO and 10 μM of LbDHODH at 165 nM. […]
The entries below are paired with their reported activity at 0.390625 µM.
Please reply with the bare figure in % and do not write the unit itself.

O=C1NC(=O)C(=Cc2ccccc2)C(=O)N1	106

Data point: `O=C1NC(=O)C(=C/C=C/c2ccccc2)C(=O)N1` ; activity at 0.390625 µM = 71

Data point: `O=C1NC(=O)C(=Cc2ccc(-c3ccccc3)cc2)C(=O)N1` ; activity at 0.390625 µM = 91

Data point: `O=C1NC(=O)C(=Cc2ccc(N3CCOCC3)cc2[N+](=O)[O-])C(=O)N1` ; activity at 0.390625 µM = 79

Data point: `O=C1NC(=O)C(=Cc2ccc(C(=O)O)cc2)C(=O)N1` ; activity at 0.390625 µM = 96

Data point: `COc1cc(C=C2C(=O)NC(=O)NC2=O)ccc1O` ; activity at 0.390625 µM = 96

Data point: `O=C1NC(=O)C(=Cc2ccc(O)c([N+](=O)[O-])c2)C(=O)N1` ; activity at 0.390625 µM = 99

* * *

Target: LbDHODH (Leishmania braziliensis, UniProt E9AI53)
Experiment: biochemical
Details: LbDHODH, without preincubation; read-out: IC50 0 h
PROPERTY LABEL: IC50 (µM)
Please reply with the bare figure in µM and do not write the unit itself.

Test item O=C(O)c1cc(=O)[nH]c(=O)[nH]1 [Orotate, orotate] ; LbDHODH (Leishmania braziliensis, UniProt E9AI53); reported IC50 was 57

* * *

Assay: in vitro
Conditions: mouse, microsomes, pH 7.4, % Remaining, T=30 min, n=2, mouse liver microsomes, 1 µM, 30 min, n=2
PROPERTY LABEL: remaining at 0.5 h, 1 µM
Form field: result (number plus unit)

Check out these entries, answers already filled in.
O=C1NC(=O)C(=Cc2ccc(N3CCOCC3)cc2[N+](=O)[O-])C(=O)N1 [2e]	91.7%
COc1cc(C=C2C(=O)NC(=O)NC2=O)ccc1O [2c]	9.5%
O=C1NC(=O)C(=C/C=C/c2ccccc2)C(=O)N1 [2i]	0%

Data point: O=C1NC(=O)C(=Cc2ccc(-c3ccccc3F)[nH]2)C(=O)N1 [2h] ; remaining at 0.5 h, 1 µM = 0.554%
